target: NADPH oxidase 2 (Homo sapiens) (UniProt P04839); assay: NOX2-dependent H2O2 signal modulators, primary screen, NOX inhibitor project, cell-based, HEK293-NOX2, PMA-stimulated, Amplex Red fluorescence (AID 1159); conditions: 45 min, higher = more signal, called active from +8 up or from −8 down; also: test concentration not given here
Sequence (P04839 whole entry, looked up): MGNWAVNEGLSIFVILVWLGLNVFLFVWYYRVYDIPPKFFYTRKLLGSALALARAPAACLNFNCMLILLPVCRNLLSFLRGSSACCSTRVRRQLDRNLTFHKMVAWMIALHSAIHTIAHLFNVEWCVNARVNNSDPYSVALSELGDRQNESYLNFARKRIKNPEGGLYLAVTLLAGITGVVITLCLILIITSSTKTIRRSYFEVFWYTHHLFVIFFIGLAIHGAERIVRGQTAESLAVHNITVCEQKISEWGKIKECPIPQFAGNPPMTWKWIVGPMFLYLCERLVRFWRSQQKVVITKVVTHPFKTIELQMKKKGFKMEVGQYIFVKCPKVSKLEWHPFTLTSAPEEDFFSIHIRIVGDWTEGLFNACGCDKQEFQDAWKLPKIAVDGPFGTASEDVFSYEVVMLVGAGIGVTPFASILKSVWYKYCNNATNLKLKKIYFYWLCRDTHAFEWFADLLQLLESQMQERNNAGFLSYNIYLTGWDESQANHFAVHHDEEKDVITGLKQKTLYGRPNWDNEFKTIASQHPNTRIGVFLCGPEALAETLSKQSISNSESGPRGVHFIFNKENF
Calls of active or inactive are those of the source.
Property Label: z-score

Give reported z-score for O=C1C2C=CC(C(O)c3cc(C(F)(F)F)cc(C(F)(F)F)c3)N(Nc3ccc([N+](=O)[O-])cc3)C2C(=O)N1c1ccccc1 (stereo unspecified) (NADPH oxidase 2 (Homo sapiens) (UniProt P04839))
-0.378 (inactive)

Give reported z-score for `O=c1cccc(-c2ccc(C(F)(F)F)cc2)o1` (NADPH oxidase 2 (Homo sapiens) (UniProt P04839))
0.584 (inactive)

Give reported z-score for `O=C(N1CCCCC1)[C@@]1(Cc2ccccc2)COC(c2ccc(OCCCO)cc2)=N1` (NADPH oxidase 2 (Homo sapiens) (UniProt P04839))
-4.59 (inactive)

Give reported z-score for `O=C1O[C@@H](c2ccccc2)[C@@H](c2ccccc2)N2[C@@H](c3ccc(O)cc3)[C@]3(C(=O)Nc4ccc(C#CCCO)cc43)[C@@H](C(=O)NC[C@H](O)c3ccccc3)[C@H]12` (NADPH oxidase 2 (Homo sapiens) (UniProt P04839))
-0.247 (inactive)

###

assay: small-molecule microarray binders of probe aXIP, primary screen, biochemical, NeuroSMM set, 635/667 nm fluorescence (AID 1119); details: higher = more signal, called active from +8 up or from −8 down;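 also: probe is the protein aXip251-270 applied at 1 µg/mL to compound-printed slides; binding of probe to printed compounds measured as 667 nm fluorescence plus signal to noise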
composite Z-score values, listed per item
Lab note: jot the number down without any unit.

Example results:
Please indicate composite Z-score recorded for `COCC(=C=CC[C@H](O)c1ccc(OCCO)cc1)C[C@H](O)COCc1ccccc1`
0.0082

Please indicate composite Z-score recorded for `O=C(O)[C@]1(Cc2ccccc2)N=C(c2ccc(OCCCO)cc2)O[C@@H]1c1ccccc1`
-0.191

Please indicate composite Z-score recorded for `COc1c(C)cc(-c2cc3c(c(-c4ccccc4)n2)[Si](C(C)C)(C(C)C)OC3)cc1C`
0.478

Please indicate composite Z-score recorded for `C[C@]1(C(=O)NCCN2CCOCC2)c2ccccc2C(=O)N(Cc2ccc(OC(F)(F)F)cc2)[C@H]1c1ccc(CO)cc1`
0.456

Please indicate composite Z-score recorded for `C=CCNC(=O)[C@H]1[C@@H]2C(=O)O[C@@H](c3ccccc3)[C@@H](c3ccccc3)N2[C@@H](c2ccccc2OCCO)[C@]12C(=O)N(C(=O)OCCOC)c1ccc(C#CC3=CCCCC3)cc12`
-0.0127

Could you now look at the following compound, please?
Please indicate composite Z-score recorded for CN1C2C=C(CCCO)C(C3C(=O)N(C(N)=O)C(=O)C32)C1c1cccs1 (centres undefined)
-0.394

###

assay: MM1S myeloma cell viability, profiling panel, resazurin fluorescence, basal, 24 h, PK04 Diversity Set (AID 1174); settings: higher = more signal, called active from +8 up or from −8 down;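 also: MM1S multiple myeloma cell line; test concentration not given here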
Active and inactive are the calls of the source.
z-score values, listed per item

Example results:
Please indicate z-score recorded for `COc1ccc([Si](C)(C)[C@H]2[C@H](CC(=O)N3Cc4ccccc4C[C@H]3CO)O[C@@]3(C(=O)N(Cc4cccc(N5CCCCC5=O)c4)c4ccccc43)[C@@H]2C)cc1`
-2.39 (inactive)

Please indicate z-score recorded for `[N-]=[N+]=NCc1ccccc1C[C@@]1(C(=O)N2CCCCC2)N=C(c2ccc(OCCCO)cc2)O[C@@H]1c1ccccc1N=[N+]=[N-]`
-0.964 (inactive)

Please indicate z-score recorded for `Cc1ccc(F)cc1S(=O)(=O)N[C@@H]1CCN(Cc2ccc(OC(C)C)cc2)C1`
-2.09 (inactive)

Please indicate z-score recorded for `O=C1O[C@@H](c2ccccc2)[C@@H](c2ccccc2)N2[C@@H](c3ccccc3OCCO)[C@]3(C(=O)Nc4ccc(C#CCCO)cc43)[C@@H](C(=O)N3CCN(c4ncccn4)CC3)[C@H]12`
-0.901 (inactive)

Please indicate z-score recorded for `C=C(CCCC)/C(=C/C[C@@H](OC(C)=O)c1ccc(CO)o1)c1cc(C(=O)OC)ccc1OC`
-0.493 (inactive)

Please indicate z-score recorded for `CN(C)CCCNC(=O)[C@@H]1c2ccccc2C(=O)N(Cc2ccc(OC(F)(F)F)cc2)[C@H]1c1ccc(CO)cc1`
0.983 (inactive)

Please indicate z-score recorded for `COC(=O)[C@@]1(Cc2ccc(OC)cc2)[C@H]2c3cc(C(=O)N4CCCC4)n(CCc4cc5ccccc5[nH]4)c3C[C@H]2CN1C(=O)c1ccccc1`
-1.24 (inactive)

Please indicate z-score recorded for `C=C(CCCC)/C(=C/C[C@@H](OC(=O)c1ccncc1)c1cccc(OCCO)c1)c1cnc2ccccc2c1`
-0.369 (inactive)

Please indicate z-score recorded for `COCCCNC(=O)[C@]1(CCC(=O)OC(C)(C)C)N=C(c2ccc(OCCCO)cc2)O[C@@H]1c1ccccc1`
-0.121 (inactive)

Please indicate z-score recorded for CC1CC/C=C\[C@H]2OC34C=CCN(C(C)C)C(=O)[C@H]3N(CCCCCO)C(=O)[C@@H]4C2C(=O)O1 (some centres not stated)
1.46 (inactive)

Next:
Please indicate z-score recorded for `COC(=O)[C@@]1(Cc2ccccc2)[C@H]2c3cc(C(=O)N4CCCC4)n(C[C@H](O)CO)c3C[C@H]2CN1C(=O)c1ccccc1`
-0.688 (inactive)

Please indicate z-score recorded for `COCCOC(=O)N1C(=O)[C@@]2(c3cc(C#CCNC(N)=O)ccc31)[C@H](C(=O)N1CCCCCCC1)[C@H]1C(=O)O[C@H](c3ccccc3)[C@H](c3ccccc3)N1[C@@H]2c1ccc(O)cc1`
-0.97 (inactive)

###

system: Plasmodium falciparum Sir2 (PF13_0152, Sir2A); assay: pfSir2 binders on small-molecule microarrays, primary screen, biochemical, small-molecule microarray, 635 nm fluorescence (AID 1098); settings: small-molecule microarray binding, fluorescence 635 nm; higher = more signal;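 also: score merges spot fluorescence intensity with its signal-to-noise ratio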
Rule: composite z-score of 1 or more gives TRUE; anything lower gives FALSE.

Check this compound for composite z-score at or above 1: `O=C(O)[C@H]1C[C@H]2C(=O)N3CCC[C@H]3C(=O)N2[C@H]1c1cccc(OCCO)c1`
TRUE

Check this compound for composite z-score at or above 1: `CCCN1C(=O)[C@]2(Cc3ccccc3)N=C(c3ccc(OCCCO)cc3)O[C@@H]2c2ccccc21`
TRUE

Check this compound for composite z-score at or above 1: `C=CCN1C(=O)[C@@]2(O[C@@H](CCO)[C@H]([Si](C)(C)c3ccc(OC)cc3)[C@H]2C)c2cc(N3C(=O)c4ccccc4Oc4ccccc43)ccc21`
TRUE

Check this compound for composite z-score at or above 1: `C=CCOC(=O)[C@@H]1[C@H]2C(=O)O[C@H](c3ccccc3)[C@H](c3ccccc3)N2[C@H](c2ccc(OCCOC(=O)[C@H]3C[C@H]4C(=O)N[C@@H](CCCC[N+](C)(C)C)C(=O)N4[C@H]3c3ccc(O)cc3)cc2)[C@@]12C(=O)Nc1ccc(I)cc12`
TRUE

Check this compound for composite z-score at or above 1: O=C1OCCC=C[C@H]2OC34C=CCN(c5ccc(Cl)cc5)C(=O)[C@H]3N(CCCCCO)C(=O)[C@@H]4C12 (some centres undefined)
TRUE

Check this compound for composite z-score at or above 1: CN1C(=O)C2C(C1=O)C1C=C(c3ccc(CO)cc3)C2C(c2cccs2)N1Cc1cccc(OC(F)(F)F)c1 (centres undefined)
TRUE

Check this compound for composite z-score at or above 1: `COc1ccc(NC(=O)O[C@H]2[C@H](OC(=O)Nc3ccc4c(c3)OCO4)[C@@H](OC(=O)Nc3ccc4c(c3)OCO4)[C@@H](OC)O[C@@H]2CO)cc1`
TRUE

Check this compound for composite z-score at or above 1: O=C1NC(=O)C2C1C=CC(C(O)c1c(F)cccc1Cl)N2Nc1ccccn1 (centres undefined)
FALSE

Next:
Check this compound for composite z-score at or above 1: `Cc1ccc(S[C@]2(C(=O)NC(C)C)CC(=O)N(C3Cc4ccccc4C3)[C@@H]2c2ccc(CO)cc2I)cc1`
FALSE

Check this compound for composite z-score at or above 1: `COCCCNC(=O)[C@]1(CCC(=O)OC(C)(C)C)N=C(c2ccc(OCCCO)cc2)O[C@@H]1c1ccccc1`
TRUE

Check this compound for composite z-score at or above 1: `C=CCOC(=O)[C@H]1[C@@H]2C(=O)O[C@@H](c3ccccc3)[C@@H](c3ccccc3)N2[C@@H](c2ccc(OCCOC(=O)[C@H]3C[C@H]4C(=O)N[C@@H](CCCC[N+](C)(C)C)C(=O)N4[C@H]3c3cccc(OCCO)c3)cc2)[C@]12C(=O)Nc1ccc(I)cc12`
TRUE

Check this compound for composite z-score at or above 1: `C=CC[C@]12N=C(c3ccc(OCCCO)cc3)O[C@H]1c1ccccc1N(C)C2=O`
TRUE

Check this compound for composite z-score at or above 1: `CCCCC(=C=CC[C@@H](O)c1ccc(OCCO)cc1)C[C@@H](O)COCc1ccccc1`
TRUE

Check this compound for composite z-score at or above 1: `CCOC(=O)C[C@H]1[C@H](OC(=O)c2ccccc2-c2ccccc2)[C@@H](NC(=O)CC(C)C)c2cc(OCCCO)ccc2N1C(=O)c1ccc2ccccc2n1`
FALSE
